Target: Seed linoleate 13S-lipoxygenase-1 (Glycine max, UniProt P08170)
Sequence (P08170 whole entry): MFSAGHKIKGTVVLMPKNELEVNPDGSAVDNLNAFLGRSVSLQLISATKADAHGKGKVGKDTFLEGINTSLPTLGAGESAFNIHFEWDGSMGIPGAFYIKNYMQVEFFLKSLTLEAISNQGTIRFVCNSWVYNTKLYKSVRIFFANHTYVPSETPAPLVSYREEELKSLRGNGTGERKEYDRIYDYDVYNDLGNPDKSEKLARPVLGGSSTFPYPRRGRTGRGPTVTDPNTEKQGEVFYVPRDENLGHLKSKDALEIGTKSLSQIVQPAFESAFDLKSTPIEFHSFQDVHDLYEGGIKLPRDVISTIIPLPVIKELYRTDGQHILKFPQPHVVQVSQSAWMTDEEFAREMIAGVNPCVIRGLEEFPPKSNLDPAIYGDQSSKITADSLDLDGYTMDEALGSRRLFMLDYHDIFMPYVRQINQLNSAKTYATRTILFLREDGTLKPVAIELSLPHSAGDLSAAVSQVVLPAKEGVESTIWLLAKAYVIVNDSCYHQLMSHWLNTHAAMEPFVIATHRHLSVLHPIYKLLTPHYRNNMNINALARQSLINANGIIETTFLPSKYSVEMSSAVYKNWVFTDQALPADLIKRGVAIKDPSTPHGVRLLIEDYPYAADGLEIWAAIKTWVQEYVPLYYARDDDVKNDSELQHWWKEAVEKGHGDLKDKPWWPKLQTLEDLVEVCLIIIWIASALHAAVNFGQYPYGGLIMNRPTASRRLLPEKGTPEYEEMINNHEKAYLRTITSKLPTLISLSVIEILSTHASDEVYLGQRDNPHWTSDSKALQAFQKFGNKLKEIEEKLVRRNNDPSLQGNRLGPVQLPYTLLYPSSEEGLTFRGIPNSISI
reportedEndpoint: pIC50
Give bare numbers, as −log10 of the molar value.

Example results:
[
  {
    "compound": "O=C1C(O)C(CO)OC(Oc2c[nH]c3ccccc23)C1O (stereo unspecified)",
    "targetOrTestSystem": "Seed linoleate 13S-lipoxygenase-1 (Glycine max, UniProt P08170)",
    "pIC50": 4.27
  },
  {
    "compound": "N#CC(=C1Nc2ccccc2C1=O)c1c[nH]c2ccccc12",
    "targetOrTestSystem": "Seed linoleate 13S-lipoxygenase-1 (Glycine max, UniProt P08170)",
    "pIC50": 4.41
  },
  {
    "compound": "C=CC(CC(=NOS(=O)(=O)O)SC1OC(CO)C(O)C(O)C1O)OC(=O)CC1(O)C(=O)Nc2ccccc21 (stereo unspecified) [3'-Hydroxyepiglucoisatisin, 3]",
    "targetOrTestSystem": "Seed linoleate 13S-lipoxygenase-1 (Glycine max, UniProt P08170)",
    "pIC50": 4.51
  },
  {
    "compound": "O=C(O)CC(=O)OCC1OC(Oc2c[nH]c3ccccc23)C(O)C(=O)C1O (stereo unspecified)",
    "targetOrTestSystem": "Seed linoleate 13S-lipoxygenase-1 (Glycine max, UniProt P08170)",
    "pIC50": 4.31
  },
  {
    "compound": "C=CC(CC(=NOS(=O)(=O)O)SC1OC(CO)C(O)C(O)C1O)OC(=O)CC1C(=O)Nc2ccccc21 (stereo unspecified) [Epiglucoisatisin, 2]",
    "targetOrTestSystem": "Seed linoleate 13S-lipoxygenase-1 (Glycine max, UniProt P08170)",
    "pIC50": 4.47
  }
]

Below: the item to evaluate.
Provide pIC50 value for the following compound: O=S(=O)(O)ON=C(Cc1cc2ccccc2n1S(=O)(=O)O)SC1OC(CO)C(O)C(O)C1O (stereo unspecified)
4.38
